# System: Pseudomonas aeruginosa
# assay-info: Antibacterial activity against Pseudomonas aeruginosa ATCC 9027 assessed as concentration required to inhibit visible growth by CLSI protocol based serial microdilution method
# Type: functional
Quick reference: MBC of the listed items.
The reply should read as a number followed by its unit.

Field: example entries. Status: answers known.
CCCCCCCCCCCC[N+]12CC[N+](Cc3nnn(CCCCC(=O)OC)c3C[N+]34CC[N+](CCCCCCCCCCCC)(CC3)CC4)(CC1)CC2.[Cl-].[Cl-].[Cl-].[Cl-] :: 12.5 µg/mL
CCCCCCCCCCCC[N+]12CC[N+](CCCC[N+]34CC[N+](CCCCCCCCCCCC)(CC3)CC4)(CC1)CC2 :: 3.1 µg/mL
CCCCCCCCCCCC[N+]12CC[N+](Cc3ccccc3C[N+]34CC[N+](CCCCCCCCCCCC)(CC3)CC4)(CC1)CC2 :: 3.1 µg/mL

Enquiry: Quote MBC reported for CCCCCCCCCCCC[N+]12CC[N+](Cc3nnn(CCCCCN=[N+]=[N-])c3C[N+]34CC[N+](CCCCCCCCCCCC)(CC3)CC4)(CC1)CC2.[Cl-].[Cl-].[Cl-].[Cl-] please.
Return: 6.3 µg/mL

Enquiry: Quote MBC reported for CCCCCCCCCCCC[N+]12CC[N+](Cc3cccc(C[N+]45CC[N+](CCCCCCCCCCCC)(CC4)CC5)c3)(CC1)CC2 please.
Return: 3.1 µg/mL

Enquiry: Quote MBC reported for C#CCOCCCCCN(CC[N+]12CC[N+](CCCCCCCCCCCC)(CC1)CC2)CC[N+]12CC[N+](CCCCCCCCCCCC)(CC1)CC2.[Cl-].[Cl-].[Cl-].[Cl-] please.
Return: 12.5 µg/mL

###

# Test system: Salmonella typhimurium
# assay-info: Antibacterial activity against Salmonella enterica ATCC 14028 assessed as concentration required to inhibit visible growth by CLSI protocol based serial microdilution method
# Format: functional, Salmonella enterica subsp. enterica serovar Typhimurium
result-type: MBC

CCCCCCCCCCCC[N+]12CC[N+](Cc3cccc(-c4ccccc4C[N+]45CC[N+](CCCCCCCCCCCC)(CC4)CC5)c3)(CC1)CC2 :: 3.1 µg/mL

Enquiry: Find the measured MBC of CCCCCCCCCCCC[N+]12CC[N+](CCCC[N+]34CC[N+](CCCCCCCCCCCC)(CC3)CC4)(CC1)CC2 with Salmonella typhimurium as test system.
Return: 3.1 µg/mL

Enquiry: Find the measured MBC of CCCCCCCCCCCC[N+]12CC[N+](Cc3ccccc3C[N+]34CC[N+](CCCCCCCCCCCC)(CC3)CC4)(CC1)CC2 with Salmonella typhimurium as test system.
Return: 3.1 µg/mL

Enquiry: Find the measured MBC of CCCCCCCCCCCC[N+]12CC[N+](CC#CC[N+]34CC[N+](CCCCCCCCCCCC)(CC3)CC4)(CC1)CC2 with Salmonella typhimurium as test system.
Return: 12.5 µg/mL

Enquiry: Find the measured MBC of CCCCCCCCCCCC[N+]12CC[N+](Cc3nnn(CCCCC(=O)OC)c3C[N+]34CC[N+](CCCCCCCCCCCC)(CC3)CC4)(CC1)CC2.[Cl-].[Cl-].[Cl-].[Cl-] with Salmonella typhimurium as test system.
Return: 3.1 µg/mL

Enquiry: Find the measured MBC of CCCCCCCCCCCC[N+]12CC[N+](CCC[N+]34CC[N+](CCCCCCCCCCCC)(CC3)CC4)(CC1)CC2 with Salmonella typhimurium as test system.
Return: 3.1 µg/mL

Enquiry: Find the measured MBC of CCCCCCCCCCCC[N+]12CC[N+](Cc3nnn(CCCCCN=[N+]=[N-])c3C[N+]34CC[N+](CCCCCCCCCCCC)(CC3)CC4)(CC1)CC2.[Cl-].[Cl-].[Cl-].[Cl-] with Salmonella typhimurium as test system.
Return: 3.1 µg/mL
